Documented melting point across a set of compounds

Cl.Cn1c2c(c3ccc(-n4ccc(-c5ccc(C(F)(F)F)cn5)cc4=O)cc31)CCCNC2 | 288 to 296 °C (dec.)

response.value for Cl.Cn1c2c(c3ccc(-n4ccc(OCc5ccc(Cl)cc5F)cc4=O)cc31)CNCCC2 (field: melting point) = 191 to 200 °C

Cl.Cn1c2c(c3ccc(-n4ccc(-c5ccc(C(F)(F)F)nn5)cc4=O)cc31)CNCCC2 has a reported melting point of 248 to 252 °C (dec.)

For CC(=O)N1CCCc2c(c3ccc(-n4ccc(-c5ccc(C(F)(F)F)nc5)cc4=O)cc3n2C)C1 the compound record lists melting point as 156 to 162 °C

Lab note: Cl.Cn1c2c(c3ccc(-n4ccc(-c5ccc(C(F)(F)F)cn5)cc4=O)nc31)CCNCC2 gave melting point of 310 to 314 °C (dec.)

According to the records, this compound Cl.Cn1c2c(c3ccc(-n4ccc(-c5ccc(C(F)(F)F)nc5)cc4=O)nc31)CCNCC2 displays melting point of 320 to 325 °C (dec.)

So, CSc1ccc(-c2ccn(-c3ccc4c5c(n(C)c4c3)CCCNC5)c(=O)c2)cc1.Cl ? Its melting point was 250 to 255 °C (dec.)

Entry Cl.O=c1cc(-c2ccc(C(F)(F)F)cn2)ccn1-c1ccc2c3c([nH]c2c1)CCCNC3 ; melting point = 310 to 320 °C (dec.)
